method: Quantitative High-Throughput drug screen in 47 multiple myeloma cell lines against the NCATS MIPE library collection: MOLP8_DSMZ cell viability assay (AID 1918977); further: nearly all actives have a fitted effect of over 45% in size
measurementContext: MOLP8 myeloma viability, CellTiter-Glo ATP luminescence, 48 h; series mostly up to 45.8 µM
Results filed as inconclusive are left out. Activity calls are given as the source filed them. The call rests on the fitted dose curve; in most records, active means well fitted cell-killing curve with a large enough effect; inconclusive means small, poorly fitted or top-dose-only effect, or effect the other way; inactive means no such curve, though single readings can be large or run the other way.
Form entry, call: pick from true (active), false (inactive)

Prompt: Each molecule tested received a call. Report the one for Cn1c(=O)c2c(ncn2CC(O)CO)n(C)c1=O (stereo not given) .
Response: false

Prompt: Each molecule tested received a call. Report the one for C[C@@H](NCCCc1cccc(C(F)(F)F)c1)c1cccc2ccccc12 .
Response: false

Prompt: Each molecule tested received a call. Report the one for O=C(O)C1CCCN(CCC=C(c2ccccc2)c2ccccc2)C1 (stereo not given) .
Response: true

###

systemTested: Peroxisome proliferator-activated receptor alpha (Homo sapiens) (UniProt Q07869)
Sequence (Q07869 whole entry, looked up): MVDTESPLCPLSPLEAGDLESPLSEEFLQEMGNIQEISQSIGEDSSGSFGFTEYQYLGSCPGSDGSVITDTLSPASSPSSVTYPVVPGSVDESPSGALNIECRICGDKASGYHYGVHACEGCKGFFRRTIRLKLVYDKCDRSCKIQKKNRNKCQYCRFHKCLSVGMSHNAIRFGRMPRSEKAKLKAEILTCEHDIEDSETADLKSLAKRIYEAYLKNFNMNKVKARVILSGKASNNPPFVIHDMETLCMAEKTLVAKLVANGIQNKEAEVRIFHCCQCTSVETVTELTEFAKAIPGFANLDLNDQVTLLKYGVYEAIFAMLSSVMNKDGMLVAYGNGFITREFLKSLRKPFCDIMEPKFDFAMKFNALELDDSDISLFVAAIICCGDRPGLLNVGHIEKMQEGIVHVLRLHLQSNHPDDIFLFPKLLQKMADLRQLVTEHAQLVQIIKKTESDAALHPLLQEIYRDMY
method: qHTS assay for small molecule agonists of the peroxisome proliferator-activated receptor alpha (PPARalpha) signaling pathway (AID 651778); further: % of control where 0% means no effect
measurementContext: PathHunter PPARalpha complementation, chemiluminescence, 6 h; active compounds read high
Measured max response of individual entries
The answer is to be given in %; state only the numeric part.

Solved cases (2 shown):
# molecule, unitsOfMeasure, max response
measured = [
    ("Nc1nc(N)c2nc(CNc3ccc(C(=O)NC(CCC(=O)O)C(=O)O)cc3)cnc2n1 (centres undefined)", "%", -1.16),
    ("S=P(N1CC1)(N1CC1)N1CC1", "%", -1.18),
]

Prompt: Consider the molecule O=C(O)c1cc(=O)[nH]c(=O)[nH]1 . State its measured max response.
Response: -0.877

Prompt: Consider the molecule CC(=O)CC(c1ccccc1)c1c(O)c2ccccc2oc1=O (centres undefined) . State its measured max response.
Response: -0.925

Prompt: Consider the molecule Cc1nnc(NS(=O)(=O)c2ccc(N)cc2)s1 . State its measured max response.
Response: 6.59

Prompt: Consider the molecule OC(Cn1cncn1)(Cn1cncn1)c1ccc(F)cc1F . State its measured max response.
Response: -1.95

Prompt: Consider the molecule CC(=O)Oc1ccccc1C(=O)Nc1ncc([N+](=O)[O-])s1 . State its measured max response.
Response: -4.4

Prompt: Consider the molecule NNC(=O)c1ccncc1 . State its measured max response.
Response: -1.45

Prompt: Consider the molecule COc1ccc2cc3[n+](cc2c1OC)CCc1cc2c(cc1-3)OCO2 . State its measured max response.
Response: -3.31

###

Tested on: CP192
method: qHTS profiling for inhibitors of Plasmodium falciparum proliferation (AID 504749); further: nearly all actives have a fitted effect of over 60% in size
measurementContext: P. falciparum in erythrocytes, SYBR Green DNA, 72 h; series mostly up to 28.7 µM
Records with an inconclusive call do not appear. Active and inactive are the calls of the source. The call rests on the fitted dose curve; in most records, active means well fitted inhibition curve with a large enough effect; inconclusive means small, poorly fitted or top-dose-only effect; inactive means flat fitted curve, though single readings scatter.
Form entry, call: pick from Y for active, N for inactive

Before answering, review these 6 worked examples.
# compound, classLabel
records = [
    ("CCCc1cc(C(N)=S)ccn1", "N"),
    ("COc1nc(N)nc2c1ncn2[C@@H]1O[C@H](CO)[C@@H](O)[C@@H]1O", "N"),
    ("COc1ccc(-c2ccc3cc(C(=O)O)ccc3c2)cc1C12CC3CC(CC(C3)C1)C2", "N"),
    ("CN(CCOc1ccc(CC2SC(=O)NC2=O)cc1)c1ccccn1 (centres undefined)", "N"),
    ("Cn1nnc2c(C(N)=O)ncn2c1=O", "N"),
    ("CN(Cc1cc(Br)cc(Br)c1N)C1CCCCC1", "N"),
]

Prompt: Each compound tested received a call. Report the one for CCCc1nc(C)c2c(=O)[nH]c(-c3cc(S(=O)(=O)N4CCN(CC)CC4)ccc3OCC)nn12 .
Response: N

Prompt: Each compound tested received a call. Report the one for COC(=O)Nc1nc2ccc(C(=O)c3ccccc3)cc2[nH]1 .
Response: N

Prompt: Each compound tested received a call. Report the one for Cc1ccnc2c1NC(=O)c1cccnc1N2C1CC1 .
Response: N

Prompt: Each compound tested received a call. Report the one for CNC(=O)c1cc(Oc2ccc(NC(=O)Nc3ccc(Cl)c(C(F)(F)F)c3)cc2)ccn1 .
Response: Y

Prompt: Each compound tested received a call. Report the one for O=c1cc(O)c(Cl)c[nH]1 .
Response: N
